Assay info: Stability in human liver microsomes assessed as intrinsic clearance at 1 uM measured upto 60 mins in the presence of NADPH by LC-MS/MS analysis
Format: ADME, Microsome
Experimental parameters: 1 h
Measured property: CLH (mL/min/g)

COc1cc(Cl)ccc1COc1cccc(N2C=NN(Cc3nc4c(F)cc(C(=O)O)cc4n3C[C@@H]3CCO3)CC2)n1 : 21

A = N#Cc1ccc(COc2cccc(N3C=NN(Cc4nc5c(F)cc(C(=O)O)cc5n4C[C@@H]4CCO4)CC3)n2)c2occc12
B = O=C(O)c1cc(F)c2nc(CN3CCN(c4cccc(OCc5ccc(Cl)c6c5OCC6)n4)C=N3)n(C[C@@H]3CCO3)c2c1
C = COc1cc(C#N)ccc1COc1cccc(N2C=NN(Cc3nc4c(F)cc(C(=O)O)cc4n3C[C@@H]3CCO3)CC2)n1
Incoming: Kindly order the items shown according to CLH, from the highest value down. Answer by writing out the labels in the requested order.
Outgoing: B, A, C

I = O=C(O)c1cc(F)c2nc(CN3CCN(c4cccc(OCc5ccc(Cl)c6cc(F)oc56)n4)C=N3)n(C[C@@H]3CCO3)c2c1
II = N#Cc1ccc(COc2cccc(C3CCN(Cc4nc5ccc(C(=O)O)cc5n4C[C@@H]4CCO4)CC3)n2)c(F)c1
Incoming: Of the two listed items, which has the higher CLH? First: I Second: II Give the label under which the chosen entry appears.
Outgoing: I

----------
Assay info: Stability in human liver microsomes assessed as half-life at 1 uM measured upto 60 mins in the presence of NADPH by LC-MS/MS analysis
Type: ADME, Microsome
Measured property: half-life at 1 µM (h)

O=C(O)c1cc(F)c2nc(CN3CCN(c4cccc(OCc5ccc(Cl)c6cc(F)oc56)n4)C=N3)n(C[C@@H]3CCO3)c2c1 : 2.77

A = N#Cc1ccc(COc2cccc(N3C=NN(Cc4nc5c(F)cc(C(=O)O)cc5n4C[C@@H]4CCO4)CC3)n2)c2occc12
B = COc1cc(C#N)ccc1COc1cccc(N2C=NN(Cc3nc4c(F)cc(C(=O)O)cc4n3C[C@@H]3CCO3)CC2)n1
C = O=C(O)c1cc(F)c2nc(CN3CCN(c4cccc(OCc5ccc(Cl)c6c5OCC6)n4)C=N3)n(C[C@@H]3CCO3)c2c1
Incoming: Kindly order the items shown according to half-life at 1 µM, from the highest value down. Answer by writing out the labels in the requested order.
Outgoing: B, A, C

A = COc1cc(C(F)(F)F)ccc1COc1cccc(N2C=NN(Cc3nc4c(F)cc(C(=O)O)cc4n3C[C@@H]3CCO3)CC2)n1
B = N#Cc1ccc(COc2cccc(C3CCN(Cc4nc5ccc(C(=O)O)cc5n4C[C@@H]4CCO4)CC3)n2)c(F)c1
C = COc1cc(Cl)ccc1COc1cccc(N2C=NN(Cc3nc4c(F)cc(C(=O)O)cc4n3C[C@@H]3CCO3)CC2)n1
Incoming: Your job: order these 3 records by half-life at 1 µM, ascending. Answer by writing out the labels in the requested order.
Outgoing: C, A, B

----------
Assay info: Stability in mouse liver microsomes assessed as half-life at 1 uM measured upto 60 mins in the presence of NADPH by LC-MS/MS analysis
Type: ADME, Microsome
Measured property: half-life at 1 µM (h)

// known answers, use as guide
COc1cc(C(F)(F)F)ccc1COc1cccc(N2C=NN(Cc3nc4c(F)cc(C(=O)O)cc4n3C[C@@H]3CCO3)CC2)n1 : 1.28
COc1cc(Cl)ccc1COc1cccc(N2C=NN(Cc3nc4c(F)cc(C(=O)O)cc4n3C[C@@H]3CCO3)CC2)n1 : 0.717
N#Cc1ccc(COc2cccc(N3C=NN(Cc4nc5c(F)cc(C(=O)O)cc5n4C[C@@H]4CCO4)CC3)n2)c2occc12 : 2.07
N#Cc1ccc(COc2cccc(C3CCN(Cc4nc5ccc(C(=O)O)cc5n4C[C@@H]4CCO4)CC3)n2)c(F)c1 : 2.8

1 = O=C(O)c1cc(F)c2nc(CN3CCN(c4cccc(OCc5ccc(Cl)c6c5OCC6)n4)C=N3)n(C[C@@H]3CCO3)c2c1
2 = COc1cc(C#N)ccc1COc1cccc(N2C=NN(Cc3nc4c(F)cc(C(=O)O)cc4n3C[C@@H]3CCO3)CC2)n1
3 = O=C(O)c1cc(F)c2nc(CN3CCN(c4cccc(OCc5ccc(Cl)c6cc(F)oc56)n4)C=N3)n(C[C@@H]3CCO3)c2c1
Incoming: Kindly order the items shown according to half-life at 1 µM, from the highest value down. Answer by writing out the labels in the requested order.
Outgoing: 2, 3, 1
